// data source = patent US8022091B2

tested-on: human Edg-1 (S1P1) (Homo sapiens, UniProt P21453)
Construct: expressed in transfected cells; host or cells: HEK-293
Sequence (P21453 whole entry): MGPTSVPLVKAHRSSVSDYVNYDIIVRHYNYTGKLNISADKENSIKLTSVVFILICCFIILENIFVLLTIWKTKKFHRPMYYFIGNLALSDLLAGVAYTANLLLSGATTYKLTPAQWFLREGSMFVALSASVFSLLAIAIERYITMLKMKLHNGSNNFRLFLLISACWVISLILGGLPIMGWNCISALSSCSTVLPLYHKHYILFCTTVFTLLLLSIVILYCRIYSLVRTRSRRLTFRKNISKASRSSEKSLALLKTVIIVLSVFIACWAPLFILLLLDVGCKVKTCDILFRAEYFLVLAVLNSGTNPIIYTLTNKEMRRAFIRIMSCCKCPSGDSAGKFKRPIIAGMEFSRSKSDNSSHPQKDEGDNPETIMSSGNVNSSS
test: S1P1 binding assay: inhibition of [33P]-S1P binding to membrane fraction of HEK-293 cells transferred with the human Edg-1 (S1P1) gene
test-context: test compound at 10 μM; inhibition of [33P]-S1P binding to the membrane fraction of HEK-293 cells expressing human Edg-1 (S1P1)
In this section we review reported inhibition at 10 µM values for a set of compounds.

{"compound": "CCOc1ccc2c(Oc3nnc([C@@H](C)NS(=O)(=O)c4ccc(Cl)c(Cl)c4)n3CC)csc2c1 [Compound 117]", "inhibition at 10 µM / %": 87.1}
{"compound": "CCn1c(Oc2ccc3cc[nH]c3c2)nnc1[C@@H](C)NS(=O)(=O)c1ccccc1 [Compound 328]", "inhibition at 10 µM / %": 85.2}
{"compound": "CCn1c(Oc2cccc(NC=O)c2)nnc1[C@@H](C)NS(=O)(=O)c1ccc(Cl)c(Cl)c1 [Compound 90]", "inhibition at 10 µM / %": 99}
{"compound": "CCn1c(Oc2ccc(F)cc2)nnc1[C@@H](C)NS(=O)(=O)c1ccc(F)c2ccccc12 [Compound 307]", "inhibition at 10 µM / %": 94.4}
{"compound": "CCn1c(Oc2ccc(F)cc2)nnc1[C@@H](C)N(C)S(=O)(=O)c1ccc(Cl)c(Cl)c1 [Compound 115]", "inhibition at 10 µM / %": 81.8}
{"compound": "CCn1c(Oc2cccc(N3CCC3)c2)nnc1[C@@H](C)NS(=O)(=O)c1ccc(Cl)c(Cl)c1 [Compound 75]", "inhibition at 10 µM / %": 95}
{"compound": "CCn1c(Oc2ccc(F)c(C)c2)nnc1[C@@H](C)NS(=O)(=O)c1ccc(Cl)c(Cl)c1 [Compound 37]", "inhibition at 10 µM / %": 100}
